The measured values listed here are drawn from patent US6140504A.

- testedSystem: factor Xa (Homo sapiens)
- Sequence (P00742 235-488 limits assumed): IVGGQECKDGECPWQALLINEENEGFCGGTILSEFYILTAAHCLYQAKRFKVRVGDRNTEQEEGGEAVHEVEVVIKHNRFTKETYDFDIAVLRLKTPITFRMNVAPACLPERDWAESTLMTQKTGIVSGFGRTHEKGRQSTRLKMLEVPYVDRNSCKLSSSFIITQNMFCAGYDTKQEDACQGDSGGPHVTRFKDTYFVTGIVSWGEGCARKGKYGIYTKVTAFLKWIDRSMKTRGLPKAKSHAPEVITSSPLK
- Sequence (P00742 41-179 partner limits assumed): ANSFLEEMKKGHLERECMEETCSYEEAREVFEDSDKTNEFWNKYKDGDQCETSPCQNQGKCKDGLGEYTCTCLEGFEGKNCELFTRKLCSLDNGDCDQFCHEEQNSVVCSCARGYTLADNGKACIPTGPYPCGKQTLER
- methodSummary: Enzyme assay, inhibition of factor Xa using purified enzyme (chromogenic peptide-p-nitroanilide substrate)
- experimentalSetup: apparent Ki via Cheng-Prusoff from IC50; room temperature, 1 nM enzyme
- Description: All enzyme as says are carried out at room temperature in 96-well microtiter plates using a final enzyme concentration of 1 nM. The concentrations of factor Xa and thrombin are determined by active site titration and the concentrations of all other enzymes are based on the protein concentration supplied by the manufacturer. […] The apparent Ki values are then determined according to the Cheng-Prusoff equation (IC50=Ki[1+[S]J/Km]) assuming competitive inhibition kinetics.
pKi: −log10 of the molar value.
reportedMetric: pKi

| molecule | pKi |
| --- | --- |
| COc1ccc(-c2ccc(C(=O)NC(CCc3ccccc3)C(COC(C)=O)Cc3cccc(C(=N)N)c3)cc2)cc1OC (stereo not drawn) [Compound 167] | 7.72 |

a = CN(C)Cc1cccc(-c2ccc(C(=O)NC(Cc3ccccc3)C(CO)Cc3cccc(C(=N)N)c3)cc2)c1 (stereo not drawn) [Compound 184]
b = CC(=O)OCC(Cc1cccc(C(=N)N)c1)C(/C=C/c1ccccc1)NC(=O)c1ccc(-c2ccccc2)cc1 (stereo not drawn) [Compound 45]
Could you tell me which of a and b has the lower pKi reading? Answer by quoting the chosen item's label.
b
(b: 7.03, a: 7.57)
